Organism: Rattus norvegicus
Test: Selectivity ratio of IC50 for Sprague-Dawley rat MAO-A to IC50 for Sprague-Dawley rat MAO-B
Rule: Ratio IC50 under 2 gives Condition not met, otherwise Condition met.

// below: answered molecules
| structure-string | assigned-class |
| --- | --- |
| CCCNC(=O)/C=C/C=C/c1ccc2c(c1)OCO2 | Condition met |
| O=C(/C=C/C=C/c1ccc(O)c(O)c1)N1CCCCC1 | Condition not met |
| CC(=O)Oc1ccc(/C=C/C=C/C(=O)N2CCCCC2)cc1OC(C)=O | Condition not met |
| CCN(CC)C(=O)CCCCc1ccc2c(c1)OCO2 | Condition met |
| CCOC(=O)CCCCc1ccc2c(c1)OCO2 | Condition met |
| CCCCNC(=O)CCCCc1ccc2c(c1)OCO2 | Condition met |

Moving on to the next molecule.
Record COC(=O)CCCCc1ccc2c(c1)OCO2 ; criterion: Ratio IC50 no lower than 2. Met?
Condition not met
